Just for reference, ChEMBL document CHEMBL4814002 is where these values come from.

biological target: Ectonucleotide pyrophosphatase/phosphodiesterase family member 1 (Homo sapiens, UniProt P22413); test: Inhibition of human NPP1 transfected in COS7 cells using pNP-TMP as substrate incubated for 35 mins; assay type: cell-based
Sequence (P22413 whole entry): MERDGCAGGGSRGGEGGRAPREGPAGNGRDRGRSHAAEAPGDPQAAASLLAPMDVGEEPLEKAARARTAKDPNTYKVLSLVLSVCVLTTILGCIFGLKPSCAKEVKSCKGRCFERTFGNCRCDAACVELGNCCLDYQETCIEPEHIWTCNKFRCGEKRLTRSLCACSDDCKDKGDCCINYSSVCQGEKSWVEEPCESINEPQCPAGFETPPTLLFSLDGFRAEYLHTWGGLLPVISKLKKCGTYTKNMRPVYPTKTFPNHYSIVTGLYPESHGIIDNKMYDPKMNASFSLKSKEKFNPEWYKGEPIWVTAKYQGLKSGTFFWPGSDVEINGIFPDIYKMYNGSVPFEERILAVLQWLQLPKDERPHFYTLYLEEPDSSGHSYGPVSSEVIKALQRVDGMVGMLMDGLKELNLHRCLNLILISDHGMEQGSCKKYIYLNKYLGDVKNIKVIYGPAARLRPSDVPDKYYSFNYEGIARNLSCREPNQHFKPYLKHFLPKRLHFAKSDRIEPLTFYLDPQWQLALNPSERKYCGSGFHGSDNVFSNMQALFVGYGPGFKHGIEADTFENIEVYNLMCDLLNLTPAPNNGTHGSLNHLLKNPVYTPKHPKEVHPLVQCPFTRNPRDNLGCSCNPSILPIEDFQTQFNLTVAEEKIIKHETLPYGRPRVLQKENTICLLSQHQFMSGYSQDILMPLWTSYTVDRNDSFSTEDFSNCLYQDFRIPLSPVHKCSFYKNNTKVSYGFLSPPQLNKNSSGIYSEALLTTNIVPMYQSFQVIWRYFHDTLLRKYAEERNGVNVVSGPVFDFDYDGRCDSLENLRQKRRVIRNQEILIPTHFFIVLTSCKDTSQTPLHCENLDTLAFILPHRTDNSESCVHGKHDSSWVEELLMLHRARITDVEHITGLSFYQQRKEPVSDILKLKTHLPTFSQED
measuredAttribute: IC50 (nM)

| smiles | unitsLabel | IC50 |
| --- | --- | --- |
| O=C(NS(=O)(=O)c1cccc([N+](=O)[O-])c1)n1ccc2cccnc21 | nM | 800 |

P. O=C(NS(=O)(=O)c1ccccc1)n1ccc2c(Cl)ccnc21
Q. O=C(NS(=O)(=O)c1ccc(Cl)cc1)n1ccc2cccnc21
// query Higher IC50: P or Q ? Please identify the chosen entry by its label.
// result Q
